Molecular target: Protein farnesyltransferase (Bos taurus, UniProt P29702+P49355)
Assay: Inhibition of bovine brain Farnesyltransferase at 1 nM
quantity: IC50 (nM)
# value in nM; strip the unit string

Exam item: For the record `CC[C@@H](C)[C@@H](CN[C@@H](Cc1ccccc1)C(=O)N[C@@H](CCO)C(=O)O)NC[C@@H](N)CS` , what value of IC50 is listed for Protein farnesyltransferase (Bos taurus, UniProt P29702+P49355)?
Marked response: 26

====

Give IC50 for every item shown.
Biological target: Protein farnesyltransferase (Homo sapiens, UniProt P49354+P49356)
Test: Inhibition of [3H]FPP incorporation into recombinant human Ha-Ras by Farnesyltransferase

Exam item: Sample `CC[C@@H](C)[C@@H](CN(Cc1ccccc1)[C@@H](Cc1ccccc1)C(=O)N[C@@H](CCSC)C(=O)O)NC[C@@H](N)CS` — what was its IC50?
Marked response: 1400 nM

Exam item: Item `CC[C@@H](C)[C@@H](CN[C@H](C(=O)N[C@@H](CCSC)C(=O)O)[C@@H](C)CC)NC[C@@H](N)CS` has what recorded IC50?
Marked response: 30 nM

Exam item: Value lookup for IC50; key = `CC[C@@H](C)[C@@H](CN[C@@H](Cc1ccccc1)C(=O)N[C@@H](CCSC)C(=O)O)NC[C@@H](N)CS`
Marked response: 4.8 nM

Exam item: Fill in the blank: the reported IC50 of `CCC[C@@H](C(=O)N[C@@H](CCO)C(=O)O)N(C)C[C@@H](NC[C@@H](N)CS)[C@H](C)CC` is ____.
Marked response: 21 nM
